Test: Elimination half life in healthy humans
Type: ADME
Details: human, in vivo; read-out: beta t1/2
measurementType: half-life

In: # lookup: half-life of C=C(C)[C@@H]1CC[C@]2(C(=O)N3CCN(C(=O)/C=C/c4ccc5c(c4)OCO5)CC3)CC[C@]3(C)[C@H](CC[C@@H]4[C@@]5(C)CC[C@H](OC(=O)CC(C)(C)C(=O)O)C(C)(C)[C@@H]5CC[C@]43C)[C@@H]12
Out: 56.3 to 69.5 h

====

Test: Cytotoxicity against human MT4 cells assessed as reduction in cell viability after 2 days by CytoTox-Glo assay
Assay type: toxicity, cell-based
Conditions: mt4, 48 h
measurementType: CC50

In: # lookup: CC50 of C=C(C)[C@@H]1CC[C@]2(C(=O)N3CCN(C(=O)/C=C/c4ccc(OC)c(OC)c4)CC3)CC[C@]3(C)[C@H](CC[C@@H]4[C@@]5(C)CC[C@H](OC(=O)CC(C)(C)C(=O)O)C(C)(C)[C@@H]5CC[C@]43C)[C@@H]12
Out: > 4.5 µM

In: Ok, now O=C(/C=C/c1ccc2c(c1)OCO2)N1CCNCC1
Out: > 90 µM

In: Ok, now O=C(O)/C=C/c1ccc2c(c1)OCO2
Out: > 90 µM

====

Test: Cytotoxicity against human MT4 cells assessed as reduction in cell viability after 2 days by CytoTox-Glo assay
Assay type: toxicity, cell-based
Settings: mt4, 48 h
Parameter: CC50. Scope: all listed entries.

The examples below pair each entry with its known result.
compoundstructurestring=C=C(C)[C@@H]1CC[C@]2(C(=O)O)CC[C@]3(C)[C@H](CC[C@@H]4[C@@]5(C)CC[C@H](OC(=O)CC(C)(C)C(=O)O)C(C)(C)[C@@H]5CC[C@]43C)[C@@H]12 reportedvalue="> 4.5 µM"
compoundstructurestring=C=C(C)[C@@H]1CC[C@]2(C(=O)N3CCNCC3)CC[C@]3(C)[C@H](CC[C@@H]4[C@@]5(C)CC[C@H](OC(=O)CC(C)(C)C(=O)O)C(C)(C)[C@@H]5CC[C@]43C)[C@@H]12 reportedvalue="> 1.5 µM"
compoundstructurestring=C=C(C)[C@@H]1CC[C@]2(C(=O)N3CCN(C(=O)/C=C/c4ccc(O)c(O)c4)CC3)CC[C@]3(C)[C@H](CC[C@@H]4[C@@]5(C)CC[C@H](OC(=O)CC(C)(C)C(=O)O)C(C)(C)[C@@H]5CC[C@]43C)[C@@H]12 reportedvalue="> 4.5 µM"

In: # lookup: CC50 of C=C(C)[C@@H]1CC[C@]2(C(=O)N3CCN(CCCCC(=O)N4CCN(C(=O)/C=C/c5ccc6c(c5)OCO6)CC4)CC3)CC[C@]3(C)[C@H](CC[C@@H]4[C@@]5(C)CC[C@H](OC(=O)CC(C)(C)C(=O)O)C(C)(C)[C@@H]5CC[C@]43C)[C@@H]12
Out: > 4.5 µM

In: Ok, now C=C(C)[C@@H]1CC[C@]2(C(=O)N3CCN(C(=O)/C=C/c4ccc5c(c4)OCO5)CC3)CC[C@]3(C)[C@H](CC[C@@H]4[C@@]5(C)CC[C@H](OC(=O)CC(C)(C)C(=O)O)C(C)(C)[C@@H]5CC[C@]43C)[C@@H]12
Out: > 4.5 µM

In: Ok, now C=C(C)[C@@H]1CC[C@]2(C(=O)N3CCN(C(=O)/C=C/c4ccc(OCOC)c(OCOC)c4)CC3)CC[C@]3(C)[C@H](CC[C@@H]4[C@@]5(C)CC[C@H](OC(=O)CC(C)(C)C(=O)O)C(C)(C)[C@@H]5CC[C@]43C)[C@@H]12
Out: > 4.5 µM
